experiment: Terminal half life in C57BL/6 mouse at 5 mg/kg, iv administered as single dose measured upto 24 hrs by LC-MS/MS analysis; format: ADME, organism-based; conditions: in vivo, read-out: beta t1/2 (converted)

moleculeSmiles | half-life [h]
Cc1cn(-c2cc(CN3CCC[C@H](N)C3)cc(NC(=O)c3ccc(C)c(Oc4ccccc4)c3)c2)cn1 | 9.86

----------
assay: Oral bioavailability in C57BL/6 mouse at 20 mg/kg administered as single dose measured upto 24 hrs by LC-MS/MS analysis; type: ADME, organism-based; settings: in vivo

moleculeSmiles | bioavailability / %
Cc1cn(-c2cc(CN3CCC[C@H](N)C3)cc(NC(=O)c3ccc(C)c(Oc4ccccc4)c3)c2)cn1 | 0.527

----------
experiment: Plasma concentration in C57BL/6 mouse at 20 mg/kg, sc administered as single dose measured after 24 hrs by LC-MS/MS analysis; type: ADME, organism-based

moleculeSmiles | concentration at 24 h
Cc1cn(-c2cc(CN3CCC[C@H](N)C3)cc(NC(=O)c3ccc(C)c(Oc4ccccc4)c3)c2)cn1 | 93 nM

----------
molecular target: PCSK9/LDLR (Homo sapiens) (UniProt Q8NBP7+P01130); experiment: Inhibition of recombinant human His-tagged PCSK9 interaction with recombinant LDLR AB domain (unknown origin) at higher concentration measured after 3 hrs by horseradish peroxidase-coupled TMB substrate based spectrophotometry relative to control; format: protein assay
The following compounds are listed with their measured Imax values.
measuredMetric: Imax (%)

moleculeSmiles | relationOperator | reading
Cc1cn(-c2cc(NC(=O)c3ccc(C)c(Oc4ccccc4)c3)cc(N3CCN(C)CC3)c2)cn1 | = | 20
Cc1cn(-c2cc(CN3CCC[C@H](N)C3)cc(NC(=O)c3ccc(C)c(Oc4ccccc4)c3)c2)cn1 | = | 57
Cc1cn(-c2cc(NC(=O)c3ccc(C)c(Oc4cccc5ccncc45)c3)cc(N3CCN(C)CC3)c2)cn1 | > | 35
Cc1cn(-c2cc(NC(=O)c3ccc(C)c(Nc4nccc(-c5ccccc5)n4)c3)cc(N3CCN(C)CC3)c2)cn1 | > | 35

----------
target: Mast/stem cell growth factor receptor Kit (Homo sapiens, UniProt P10721); assay: Inhibition of recombinant human N-terminal GST-tagged c-Kit (544 to end residues) expressed in baculovirus infected Sf21 insect cells using FAM-labelled P22 peptide as substrate preincubated for 10 mins followed by substrate addition and measured after 1 hr in presence of ATP by fluorescence assay
Sequence (P10721 whole entry): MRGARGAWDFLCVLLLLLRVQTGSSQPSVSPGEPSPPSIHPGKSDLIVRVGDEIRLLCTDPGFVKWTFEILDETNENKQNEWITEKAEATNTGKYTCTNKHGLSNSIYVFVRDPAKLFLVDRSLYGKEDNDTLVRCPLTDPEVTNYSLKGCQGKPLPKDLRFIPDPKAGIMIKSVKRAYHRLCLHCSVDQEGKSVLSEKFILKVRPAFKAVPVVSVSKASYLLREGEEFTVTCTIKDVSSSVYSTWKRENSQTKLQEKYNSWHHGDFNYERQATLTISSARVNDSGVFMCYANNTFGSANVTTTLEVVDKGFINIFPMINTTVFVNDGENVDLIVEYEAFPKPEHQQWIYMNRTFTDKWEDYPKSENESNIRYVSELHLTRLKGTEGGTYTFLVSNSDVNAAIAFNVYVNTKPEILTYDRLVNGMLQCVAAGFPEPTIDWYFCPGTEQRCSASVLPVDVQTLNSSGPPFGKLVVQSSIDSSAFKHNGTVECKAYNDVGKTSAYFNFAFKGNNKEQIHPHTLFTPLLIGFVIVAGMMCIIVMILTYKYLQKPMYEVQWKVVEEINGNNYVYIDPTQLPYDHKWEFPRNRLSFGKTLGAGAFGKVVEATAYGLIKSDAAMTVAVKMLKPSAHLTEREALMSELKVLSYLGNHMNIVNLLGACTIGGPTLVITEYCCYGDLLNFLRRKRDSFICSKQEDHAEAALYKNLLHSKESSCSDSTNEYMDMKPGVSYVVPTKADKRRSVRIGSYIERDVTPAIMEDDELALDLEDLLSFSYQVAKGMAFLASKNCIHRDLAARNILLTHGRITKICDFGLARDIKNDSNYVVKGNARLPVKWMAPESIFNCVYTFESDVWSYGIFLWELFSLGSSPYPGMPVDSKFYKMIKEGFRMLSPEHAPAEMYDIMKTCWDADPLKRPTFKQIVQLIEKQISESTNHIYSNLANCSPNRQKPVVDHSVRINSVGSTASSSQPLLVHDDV
pIC50: −log10 of the molar value.

moleculeSmiles | studyTarget | pIC50
Cc1ccc(C(=O)Nc2cccc(N3CCN(C)CC3)c2)cc1Nc1nccc(-c2ccc(F)cc2)n1 | Mast/stem cell growth factor receptor Kit (Homo sapiens, UniProt P10721) | 7.03
Cc1cn(-c2cc(CCC(=O)O)cc(NC(=O)c3ccc(C)c(Nc4nccc(-c5ccccc5)n4)c3)c2)cn1 | Mast/stem cell growth factor receptor Kit (Homo sapiens, UniProt P10721) | 6.46
Cc1cn(-c2cc(/C=C/C(=O)O)cc(NC(=O)c3ccc(C)c(Nc4nccc(-c5ccccc5)n4)c3)c2)cn1 | Mast/stem cell growth factor receptor Kit (Homo sapiens, UniProt P10721) | 5.56
Cc1cn(-c2cc(NC(=O)c3ccc(C)c(Nc4nccc(-c5ccc(F)cc5)n4)c3)cc(N3CCOCC3)c2)cn1 | Mast/stem cell growth factor receptor Kit (Homo sapiens, UniProt P10721) | 6.10

----------
experiment: Cmax in C57BL/6 mouse at 20 mg/kg, sc administered as single dose measured upto 24 hrs by LC-MS/MS analysis; assay type: ADME, organism-based; design: dose 20 mg/kg, route subcutaneous; conditions: in vivo

moleculeSmiles | Cmax, µg/mL
Cc1cn(-c2cc(CN3CCC[C@H](N)C3)cc(NC(=O)c3ccc(C)c(Oc4ccccc4)c3)c2)cn1 | 2.21

----------
experiment: AUClast in C57BL/6 mouse at 5 mg/kg, iv administered as single dose measured upto 24 hrs by LC-MS/MS analysis; format: ADME, organism-based; set-up: dose 5 mg/kg, time < 24 hr, route intravenous; details: in vivo
measuredMetric: AUC(0-t) at 24 h (ng·h/mL)

moleculeSmiles | reading
Cc1cn(-c2cc(CN3CCC[C@H](N)C3)cc(NC(=O)c3ccc(C)c(Oc4ccccc4)c3)c2)cn1 | 4380

----------
assay: AUCinfinity in C57BL/6 mouse at 20 mg/kg, sc administered as single dose measured upto 24 hrs by LC-MS/MS analysis; assay type: ADME, organism-based; design: dose 20 mg/kg, time infinity, route subcutaneous; settings: in vivo

moleculeSmiles | resultUnit | AUC(0-inf)
Cc1cn(-c2cc(CN3CCC[C@H](N)C3)cc(NC(=O)c3ccc(C)c(Oc4ccccc4)c3)c2)cn1 | ng·h/mL | 16800

----------
assay: Mean residence time (0 to infinity) in CD1 mouse at 0.4 mg/kg, iv administered as cassette dose measured upto 24 hrs by LC-MS analysis; assay type: ADME, organism-based; conditions: in vivo
Lab note: cut-off is 3 h. Strictly less in MRT inf is 1.0. Exactly 3 h or more is 0.0.

moleculeSmiles | discreteLabel
Cc1cn(-c2cc(NC(=O)c3ccc(C)c(Oc4ccccc4)c3)cc(N3CCN(C)CC3)c2)cn1 | 0.0
Cc1cn(-c2cc(NC(=O)c3ccc(C)c(Oc4ccccc4)c3)cc(C(F)(F)F)c2)cn1 | 1.0
Cc1cn(-c2cc(CN3CCC[C@H](N)C3)cc(NC(=O)c3ccc(C)c(Oc4ccccc4)c3)c2)cn1 | 0.0
Cc1cn(-c2cc(NC(=O)c3ccc(C)c(Nc4nccc(-c5ccccc5)n4)c3)cc(N3CCN(C)CC3)c2)cn1 | 1.0
Cc1cn(-c2cc(CCS(N)(=O)=O)cc(NC(=O)c3ccc(C)c(Nc4nccc(-c5ccccc5)n4)c3)c2)cn1 | 1.0
Cc1cn(-c2cc(CN3CCC[C@H](N)C3)cc(NC(=O)c3ccc(C)c(Nc4nccc(-c5ccc(F)cc5)n4)c3)c2)cn1 | 0.0
Cc1cn(-c2cc(NC(=O)c3ccc(C)c(Nc4nccc(-c5ccccc5)n4)c3)cc(N3CCNCC3)c2)cn1 | 1.0
Cc1cn(-c2cc(CN3CCN(C)CC3)cc(NC(=O)c3ccc(C)c(Nc4nccc(-c5ccccc5)n4)c3)c2)cn1 | 1.0
Cc1cn(-c2cc(NC(=O)c3ccc(C)c(C(=O)c4cccc(C#N)c4)c3)cc(N3CCN(C)CC3)c2)cn1 | 1.0
Cc1cn(-c2cc(NC(=O)c3ccc(C)c(Oc4cccc5ccncc45)c3)cc(N3CCN(C)CC3)c2)cn1 | 1.0

----------
test: Tmax in C57BL/6 mouse at 20 mg/kg, sc administered as single dose measured upto 24 hrs by LC-MS/MS analysis; type: ADME, organism-based; details: in vivo

moleculeSmiles | Tmax / h
Cc1cn(-c2cc(CN3CCC[C@H](N)C3)cc(NC(=O)c3ccc(C)c(Oc4ccccc4)c3)c2)cn1 | 1

----------
target: PCSK9/LDLR (Homo sapiens); experiment: Inhibition of recombinant human His-tagged PCSK9 interaction with recombinant LDLR AB domain (unknown origin) measured after 3 hrs by horseradish peroxidase-coupled TMB substrate based spectrophotometry
Sequence (Q8NBP7 31-152 limits assumed): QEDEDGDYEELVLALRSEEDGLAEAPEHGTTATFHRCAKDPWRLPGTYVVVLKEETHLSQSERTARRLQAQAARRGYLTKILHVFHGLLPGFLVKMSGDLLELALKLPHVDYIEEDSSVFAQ
Sequence (Q8NBP7 153-692 limits assumed): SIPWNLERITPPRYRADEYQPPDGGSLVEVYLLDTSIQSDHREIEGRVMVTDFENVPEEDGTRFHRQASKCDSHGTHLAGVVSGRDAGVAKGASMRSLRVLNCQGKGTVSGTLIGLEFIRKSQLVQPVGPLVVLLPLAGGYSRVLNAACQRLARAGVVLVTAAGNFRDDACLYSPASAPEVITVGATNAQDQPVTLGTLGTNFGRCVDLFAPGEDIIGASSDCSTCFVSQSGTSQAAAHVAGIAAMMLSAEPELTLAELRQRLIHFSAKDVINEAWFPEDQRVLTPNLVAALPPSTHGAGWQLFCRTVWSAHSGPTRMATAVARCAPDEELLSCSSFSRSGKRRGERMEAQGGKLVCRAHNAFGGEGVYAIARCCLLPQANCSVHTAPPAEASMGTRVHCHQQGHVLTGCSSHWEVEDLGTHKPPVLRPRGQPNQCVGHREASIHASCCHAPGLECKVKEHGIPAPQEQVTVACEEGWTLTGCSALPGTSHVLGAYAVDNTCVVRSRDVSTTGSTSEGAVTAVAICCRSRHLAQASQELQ
Sequence (P01130 22-860 partner limits assumed): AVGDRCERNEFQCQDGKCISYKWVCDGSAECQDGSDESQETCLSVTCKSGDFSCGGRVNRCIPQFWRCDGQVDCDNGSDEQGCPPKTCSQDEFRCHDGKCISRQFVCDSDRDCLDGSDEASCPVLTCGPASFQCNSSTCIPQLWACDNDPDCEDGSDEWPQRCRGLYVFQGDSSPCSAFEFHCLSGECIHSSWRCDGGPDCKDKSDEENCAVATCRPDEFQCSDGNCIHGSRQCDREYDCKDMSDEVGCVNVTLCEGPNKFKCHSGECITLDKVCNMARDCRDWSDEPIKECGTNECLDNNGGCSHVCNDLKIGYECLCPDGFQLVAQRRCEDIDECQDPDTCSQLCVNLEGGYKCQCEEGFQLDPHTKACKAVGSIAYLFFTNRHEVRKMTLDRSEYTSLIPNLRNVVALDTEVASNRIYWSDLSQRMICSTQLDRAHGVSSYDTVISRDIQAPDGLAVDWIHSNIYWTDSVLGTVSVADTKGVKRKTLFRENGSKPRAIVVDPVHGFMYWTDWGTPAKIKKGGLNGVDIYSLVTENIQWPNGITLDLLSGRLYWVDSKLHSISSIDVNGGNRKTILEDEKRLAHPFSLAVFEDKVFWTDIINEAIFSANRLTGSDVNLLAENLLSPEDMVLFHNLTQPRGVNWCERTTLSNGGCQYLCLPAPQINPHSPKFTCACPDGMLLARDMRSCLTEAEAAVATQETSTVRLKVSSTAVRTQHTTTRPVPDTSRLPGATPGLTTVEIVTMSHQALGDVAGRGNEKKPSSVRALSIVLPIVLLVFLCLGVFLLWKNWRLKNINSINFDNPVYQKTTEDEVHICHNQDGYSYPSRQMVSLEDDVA
pIC50: −log10 of the molar value.
measuredMetric: pIC50

compound | reading
Cc1cn(-c2cc(NC(=O)c3ccc(C)c(Nc4nccc(-c5ccccc5)n4)c3)cc(C(F)(F)F)c2)cn1 | 5.08
Cc1ccc(C(=O)Nc2cccc(N3CCN(C)CC3)c2)cc1Nc1nccc(-c2ccc(F)cc2)n1 | 5.48
Cc1cn(-c2cc(NC(=O)c3ccc(C)c(Nc4nccc(-c5ccccc5)n4)c3)cc(N3CCN(C)CC3)c2)cn1 | 6.12
Cc1cn(-c2cc(NC(=O)c3ccc(C)c(Nc4nccc(-c5cccnc5)n4)c3)cc(C(F)(F)F)c2)cn1 [NILOTINIB] | 5.01
Cc1cn(-c2cc(CCS(N)(=O)=O)cc(NC(=O)c3ccc(C)c(Nc4nccc(-c5ccccc5)n4)c3)c2)cn1 | 4.87

----------
assay: Mean residence time ( 0 to infinity) in C57BL/6 mouse at 5 mg/kg, iv administered as single dose measured upto 24 hrs by LC-MS/MS analysis; assay type: ADME, organism-based; conditions: in vivo
measuredMetric: MRT inf (h)

moleculeSmiles | resultUnit | reading
Cc1cn(-c2cc(CN3CCC[C@H](N)C3)cc(NC(=O)c3ccc(C)c(Oc4ccccc4)c3)c2)cn1 | h | 3.56

----------
experiment: Volume of distribution at steady state in CD1 mouse at 0.4 mg/kg, iv administered as cassette dose measured upto 24 hrs by LC-MS/MS analysis; format: ADME, organism-based; details: in vivo, read-out: Vdss
Lab note: cut-off is 7 L/kg. Strictly less in Vd is yes (1). Exactly 7 L/kg or more is no (0).

moleculeSmiles | discreteLabel
Cc1cn(-c2cc(NC(=O)c3ccc(C)c(Nc4nccc(-c5ccccc5)n4)c3)cc(N3CCN(C)CC3)c2)cn1 | yes (1)
Cc1cn(-c2cc(NC(=O)c3ccc(C)c(Oc4ccccc4)c3)cc(N3CCN(C)CC3)c2)cn1 | no (0)
Cc1cn(-c2cc(CN3CCC[C@H](N)C3)cc(NC(=O)c3ccc(C)c(Nc4nccc(-c5ccc(F)cc5)n4)c3)c2)cn1 | no (0)
Cc1cn(-c2cc(NC(=O)c3ccc(C)c(Nc4nccc(-c5ccccc5)n4)c3)cc(N3CCNCC3)c2)cn1 | yes (1)
Cc1cn(-c2cc(NC(=O)c3ccc(C)c(Oc4cccc5ccncc45)c3)cc(N3CCN(C)CC3)c2)cn1 | yes (1)
Cc1cn(-c2cc(CCS(N)(=O)=O)cc(NC(=O)c3ccc(C)c(Nc4nccc(-c5ccccc5)n4)c3)c2)cn1 | yes (1)
